# Test system: tyrosinase from mushroom
# Test details: In vitro test of the inhibition of isolated tyrosinase (L-DOPA to dopachrome, OD 490 nm)
# Format: biochemical
# Test context: 10^-4M; 490 nm
Let's look at some compounds and their measured Inhibition of tyrosinase from mushroom, percentage inhibition.
Answer with a number only, understood to be in %.

Some compounds with known Inhibition of tyrosinase from mushroom, percentage inhibition results, for comparison:
> print(dat)
                                   compound  data.value
1  COc1cc(OC)c2c(c1)O/C(=C\c1ccc(C#N)cc1)C2=O [Example 5d]           0
2  COc1cc(OC)c2c(c1)O/C(=C\c1ccc(O)cc1)C2=O [Example 5a]           0
3  COc1cc(O)c2c(c1)O/C(=C\c1ccc(SC)cc1)C2=O [Example 6c]       23.65
4  COc1cc(O)c2c(c1)O/C(=C\c1ccccc1)C2=O [Example 6]       31.22
5  CCc1ccc(/C=C2\Oc3cc(O)cc(O)c3C2=O)cc1 [Example 7b]       54.57
6  COc1cc(O)c2c(c1)O/C(=C\c1ccc(C#N)cc1)C2=O [Example 6d]           0
7  COc1cc(OC)c2c(c1)O/C(=C\c1ccccc1)C2=O [Example 5]           0
8  O=C1/C(=C/c2ccc(O)cc2)Oc2cc(O)cc(O)c21 [Example 9b]       23.85

The compound identified as COc1cc(OC)c2c(c1)O/C(=C\c1ccc(SC)cc1)C2=O [Example 5c] registered its Inhibition of tyrosinase from mushroom, percentage inhibition at 0

The compound identified as CCc1ccc(/C=C2\Oc3cc(OC)cc(OC)c3C2=O)cc1 [Example 5b] registered its Inhibition of tyrosinase from mushroom, percentage inhibition at 0

* * *

# Tested on: tyrosinase from mushroom
# Test details: In vitro test of the inhibition of isolated tyrosinase (L-DOPA to dopachrome, OD 490 nm)
# Type: biochemical
# Test context: 10^-5M; 490 nm
Let's look at some compounds and their measured Inhibition of tyrosinase from mushroom, percentage inhibition.
Answer with a number only, understood to be in %.

The compound identified as COc1cc(OC)c2c(c1)O/C(=C\c1ccc(C#N)cc1)C2=O [Example 5d] registered its Inhibition of tyrosinase from mushroom, percentage inhibition at 0

* * *

# System tested: Human tyrosinase (Homo sapiens, UniProt P14679)
# Construct: Normal human melanocytes (originating from abdominal plasty) are sown in a 24-well plate; endogenous in cells; host or cells: normal human melanocytes from abdominal plasty; donors of light, brown and black phototype
# Sequence (P14679 19-529): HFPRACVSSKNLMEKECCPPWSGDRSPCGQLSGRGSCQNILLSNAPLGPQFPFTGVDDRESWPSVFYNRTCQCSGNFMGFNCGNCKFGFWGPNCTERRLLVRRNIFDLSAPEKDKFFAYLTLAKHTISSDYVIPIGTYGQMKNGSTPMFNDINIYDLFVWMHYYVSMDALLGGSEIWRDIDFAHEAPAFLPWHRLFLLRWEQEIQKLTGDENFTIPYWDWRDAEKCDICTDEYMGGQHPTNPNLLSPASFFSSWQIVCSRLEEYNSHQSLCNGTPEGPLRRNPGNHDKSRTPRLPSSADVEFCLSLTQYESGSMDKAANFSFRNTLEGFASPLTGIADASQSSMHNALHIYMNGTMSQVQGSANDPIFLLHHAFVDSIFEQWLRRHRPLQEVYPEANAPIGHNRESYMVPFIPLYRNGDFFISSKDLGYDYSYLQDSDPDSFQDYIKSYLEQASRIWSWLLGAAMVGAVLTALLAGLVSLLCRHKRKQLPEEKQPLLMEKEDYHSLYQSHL
# Test details: Inhibition of human tyrosinase in a monolayer after 24 h application of the actives on normal human melanocytes (MBTH/L-Dopa, OD 490 nm/protein)
# Format: cell-based
# Test context: 10^-4M; 24 hours; read-out: Inhibition of human tyrosinase after application on normal human melanocytes, percentage inhibition
Let's look at some compounds and their measured inhibition at 100 µM.
Units required after the number.

Some compounds with known inhibition at 100 µM results, for comparison:
> print(dat)
                              entry.smiles                             system.tested  data.value
1     O=C1/C(=C/c2ccccc2O)Oc2cc(O)cc(O)c21  Human tyrosinase (Homo sapiens, UniProt P14679)       12.8%
2                  COc1cc(OC)c2c(c1)OCC2=O  Human tyrosinase (Homo sapiens, UniProt P14679)          0%
3  COc1cc(OC)c2c(c1)O/C(=C\c1ccc(C)s1)C2=O  Human tyrosinase (Homo sapiens, UniProt P14679)        4.8%

The compound identified as "CCCc1ccc(/C=C2\Oc3cc(O)cc(O)c3C2=O)cc1" registered its inhibition at 100 µM at 5.43%

The compound identified as "O=C1/C(=C/c2ccc(O)cc2)Oc2cc(O)cc(O)c21" registered its inhibition at 100 µM at 75.3%

The compound identified as "CC(C)c1ccc(/C=C2\Oc3cc(O)cc(O)c3C2=O)cc1" registered its inhibition at 100 µM at 0%

The compound identified as "CCc1ccc(/C=C2\Oc3cc(OC)cc(OC)c3C2=O)s1" registered its inhibition at 100 µM at 11.9%

* * *

Let's look at some compounds and their measured Inhibition of tyrosinase from mushroom, percentage inhibition.
# Tested on: tyrosinase from mushroom
# Test details: In vitro test of the inhibition of isolated tyrosinase (L-DOPA to dopachrome, OD 490 nm)
# Format: biochemical
# Test context: 10^-5M; 490 nm
Answer with a number only, understood to be in %.

The compound identified as "O=C1/C(=C/c2ccc(O)cc2)Oc2cc(O)cc(O)c21" registered its Inhibition of tyrosinase from mushroom, percentage inhibition at 0

The compound identified as "COc1cc(OC)c2c(c1)O/C(=C\c1ccc(SC)cc1)C2=O" registered its Inhibition of tyrosinase from mushroom, percentage inhibition at 1.07

The compound identified as "CCc1ccc(/C=C2\Oc3cc(O)cc(O)c3C2=O)cc1" registered its Inhibition of tyrosinase from mushroom, percentage inhibition at 14.63

The compound identified as "COc1cc(O)c2c(c1)O/C(=C\c1ccc(C#N)cc1)C2=O" registered its Inhibition of tyrosinase from mushroom, percentage inhibition at 0
